- TARGET: Neuronal acetylcholine receptor; alpha4/beta2 (Homo sapiens, UniProt P17787+P43681)
- Sequence (P17787 whole entry): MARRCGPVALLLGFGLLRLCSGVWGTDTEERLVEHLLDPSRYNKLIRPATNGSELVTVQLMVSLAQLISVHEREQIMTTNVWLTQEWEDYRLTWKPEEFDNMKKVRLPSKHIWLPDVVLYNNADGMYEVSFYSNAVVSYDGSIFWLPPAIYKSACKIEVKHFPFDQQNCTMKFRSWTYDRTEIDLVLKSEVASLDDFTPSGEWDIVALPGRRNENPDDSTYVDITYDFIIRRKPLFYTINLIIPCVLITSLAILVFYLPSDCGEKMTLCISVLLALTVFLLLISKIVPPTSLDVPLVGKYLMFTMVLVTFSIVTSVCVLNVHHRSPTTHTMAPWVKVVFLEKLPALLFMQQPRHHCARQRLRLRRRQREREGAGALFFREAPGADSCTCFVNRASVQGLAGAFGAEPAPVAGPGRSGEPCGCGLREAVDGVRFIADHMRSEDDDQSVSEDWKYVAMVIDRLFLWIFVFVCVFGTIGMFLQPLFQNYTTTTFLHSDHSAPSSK
- Sequence (P43681 whole entry): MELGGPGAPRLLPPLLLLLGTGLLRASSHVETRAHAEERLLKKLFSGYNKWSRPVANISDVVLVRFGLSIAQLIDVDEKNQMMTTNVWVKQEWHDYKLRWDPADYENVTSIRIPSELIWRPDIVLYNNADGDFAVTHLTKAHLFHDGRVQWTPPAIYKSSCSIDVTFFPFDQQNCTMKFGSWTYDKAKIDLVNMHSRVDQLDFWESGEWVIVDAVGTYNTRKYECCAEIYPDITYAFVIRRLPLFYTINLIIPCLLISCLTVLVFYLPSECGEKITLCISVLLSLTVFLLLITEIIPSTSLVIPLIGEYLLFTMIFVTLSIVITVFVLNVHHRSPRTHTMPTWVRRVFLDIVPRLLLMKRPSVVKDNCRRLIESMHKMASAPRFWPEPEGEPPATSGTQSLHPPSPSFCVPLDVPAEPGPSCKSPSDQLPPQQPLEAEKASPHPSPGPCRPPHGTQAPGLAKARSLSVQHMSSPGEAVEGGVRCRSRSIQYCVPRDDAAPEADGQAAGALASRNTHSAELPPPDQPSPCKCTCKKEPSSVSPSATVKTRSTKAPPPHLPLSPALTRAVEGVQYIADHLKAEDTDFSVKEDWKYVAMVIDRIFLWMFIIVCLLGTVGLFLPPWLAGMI
- ASSAY: Inhibition of alpha4beta2 nicotinic acetylcholine receptor (unknown origin)
- Type: protein-complex assay
Measured Ki values are reported for all entries that follow.
Please reply with the bare figure in nM and do not write the unit itself.

Given Oc1cccc(OC[C@@H]2CC3CCN2CC3)c1 , state its recorded Ki.
4

Reported Ki for O=[N+]([O-])c1cccc(OC[C@@H]2CC3CCN2CC3)c1 : what is it?
734

====

- TARGET: Neuronal acetylcholine receptor; alpha4/beta2 (Rattus norvegicus) (UniProt P09483+P12390)
- ASSAY: Displacement of [3H]cytisine from alpha4beta2 nicotinic acetylcholine receptor in Rattus norvegicus (rat) cerebral cortex at 10 uM after 75 min by scintillation counting
- Type: tissue-based
EXPERIMENTAL ENDPOINT: inhibition
Don't forget the unit after the value.

Solved entries (count: 5):
c1ccc(N(CCOc2cccnc2)c2ccccc2)cc1 : 0%
Oc1cccc(OCCN(c2ccccc2)c2ccccc2)c1 : 0%
CN(C)CCOc1cncc(Cl)c1 : 84%
CCCN(CCC)CCOc1cccc([N+](=O)[O-])c1 : 21%
O=[N+]([O-])c1cccc(OCCN(c2ccccc2)c2ccccc2)c1 : 0%

Fill in the blank: the reported inhibition of CC(C)N(CCOc1cccc(O)c1)C(C)C is ____.
0%

Return reported inhibition; argument: Cc1c(O)cccc1OCCN(c1ccccc1)c1ccccc1
0%
